Target: DNA topoisomerase 1 (Homo sapiens)
Sequence (whole entry): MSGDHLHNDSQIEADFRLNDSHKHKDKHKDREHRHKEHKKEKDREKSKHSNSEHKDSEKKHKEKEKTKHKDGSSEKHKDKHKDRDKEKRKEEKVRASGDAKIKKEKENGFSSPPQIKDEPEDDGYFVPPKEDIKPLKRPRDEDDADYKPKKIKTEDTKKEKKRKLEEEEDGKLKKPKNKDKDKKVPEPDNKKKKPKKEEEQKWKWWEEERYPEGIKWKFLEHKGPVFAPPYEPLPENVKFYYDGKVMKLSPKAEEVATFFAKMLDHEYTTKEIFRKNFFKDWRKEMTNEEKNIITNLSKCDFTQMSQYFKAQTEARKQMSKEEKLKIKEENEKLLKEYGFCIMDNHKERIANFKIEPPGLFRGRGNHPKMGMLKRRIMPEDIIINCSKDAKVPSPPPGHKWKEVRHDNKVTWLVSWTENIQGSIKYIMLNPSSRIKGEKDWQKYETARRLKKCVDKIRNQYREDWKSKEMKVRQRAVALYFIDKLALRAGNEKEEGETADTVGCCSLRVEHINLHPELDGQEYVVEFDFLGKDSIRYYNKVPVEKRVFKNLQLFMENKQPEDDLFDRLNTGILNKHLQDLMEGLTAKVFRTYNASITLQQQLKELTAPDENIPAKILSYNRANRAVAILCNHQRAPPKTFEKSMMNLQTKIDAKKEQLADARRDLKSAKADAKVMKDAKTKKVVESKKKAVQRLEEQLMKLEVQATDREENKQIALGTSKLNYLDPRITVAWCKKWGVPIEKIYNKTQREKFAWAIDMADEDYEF
Assay: Inhibition of DNA topoisomerase 1-mediated relaxation of supercoiled plasmid DNA at 100 uM after 3 hrs by gel electrophoresis
Active and inactive are the calls of the source. The rule behind the calls is not given here.
Returns: one label drawn from active, inactive

>  <molecule>
C=C(C)[C@@H]1CC[C@]2(C(=O)O)CC[C@]3(C)[C@H](CC[C@@H]4[C@@]5(C)CC[C@H](OC(=O)n6ccnc6C)C(C)(C)[C@@H]5CC[C@]43C)[C@@H]12

>  <class>
active

$$$$

Assay outcome for C=C(C)[C@@H]1CC[C@]2(C(=O)n3cncn3)CC[C@]3(C)[C@H](CC[C@@H]4[C@@]5(C)CC[C@H](OC(=O)n6cncn6)C(C)(C)[C@@H]5CC[C@]43C)[C@@H]12 : what was it?
active

Assay outcome for C=C(COC)[C@@H]1CC[C@]2(COC(=O)n3cncn3)CC[C@]3(C)[C@H](CC[C@@H]4[C@@]5(C)CC[C@H](OC(=O)n6cncn6)C(C)(C)[C@@H]5CC[C@]43C)[C@@H]12 : what was it?
inactive

Assay outcome for C=C(C)[C@@H]1CC[C@]2(COC(=O)n3cncn3)CC[C@]3(C)[C@H](CC[C@@H]4[C@@]5(C)CC[C@H](O)C(C)(C)[C@@H]5CC[C@]43C)[C@@H]12 : what was it?
inactive

Assay outcome for C=C(COC)[C@@H]1CC[C@]2(COC(=O)n3cncn3)CC[C@]3(C)[C@H](CC[C@@H]4[C@@]5(C)CC[C@H](O)C(C)(C)[C@@H]5CC[C@]43C)[C@@H]12 : what was it?
active

Assay outcome for C=C(C)[C@@H]1CC[C@]2(C(=O)n3ccnc3C)CC[C@]3(C)[C@H](CC[C@@H]4[C@@]5(C)CCC(=O)C(C)(C)[C@@H]5CC[C@]43C)[C@@H]12 : what was it?
inactive

Assay outcome for C=C(C)[C@@H]1CC[C@]2(COC(=O)n3cncn3)CC[C@]3(C)[C@H](CC[C@@H]4[C@@]5(C)CC[C@H](OC(=O)n6cncn6)C(C)(C)[C@@H]5CC[C@]43C)[C@@H]12 : what was it?
inactive

Sourced from ChEMBL document CHEMBL1165980
